Record form. Attribute: IC50. Fill in for each entry.
- TARGET_OF_ASSAY: farnesyl protein transferase (Homo sapiens, UniProt P49354+P49356)
- PROTOCOL_SUMMARY: In vitro assay for inhibition of farnesyl protein transferase
- Format: biochemical
- CONDITION_LABEL: negative log value of the IC50-value; read-out: Enzyme activity pIC50 (converted)
Enter your answer as a number in µM; do not include the unit.

Query IC50 on farnesyl protein transferase (Homo sapiens, UniProt P49354+P49356) for Cn1cncc1C(O)(c1ccc(Cl)cc1)c1ccc2c(c1)C(c1cccc(Cl)c1)n1nnnc1N2 (stereo not shown) 0.0254

Param readout = IC50; param system = farnesyl protein transferase (Homo sapiens, UniProt P49354+P49356); param query = Cn1cncc1[C@](N)(c1ccc(Cl)cc1)c1ccc2c(c1)C(c1cccc(Cl)c1)n1nnnc1N2 (stereo partly shown) [Compound 23] ; response: value 0.00254

Recorded IC50 for Cn1cncc1[C@](N)(c1ccc(Cl)cc1)c1ccc2c(c1)C(c1cccc(Cl)c1)n1nnnc1N2 (stereo partly shown) [Compound 24] with farnesyl protein transferase (Homo sapiens, UniProt P49354+P49356), please? 0.0117

Please tell me: IC50 of COc1ccc(C(c2ccc3c(c2)C(c2cccc(Cl)c2)n2nnnc2N3C)c2cncn2C)cc1 (mixture of isomers) , system farnesyl protein transferase (Homo sapiens, UniProt P49354+P49356)? 0.0092

----------
MEASUREMENT_NAME: melting point (°C)
Use °C as the unit, but write only the number.

Request the reported melting point associated with Cn1cncc1[C@@](N)(c1ccc(Cl)cc1)c1ccc2c(c1)C(c1cccc(Cl)c1)n1nnnc1N2 (single isomer, unassigned) [Compound 12] 162

Name the recorded melting point for COc1ccc(C(c2ccc3c(c2)C(c2cccc(Cl)c2)n2nnnc2N3C)c2cncn2C)cc1 (mixture of isomers) . 108

Suppose we examine the molecule COc1ccc(C(O)(c2ccc3c(c2)C(c2cccc(Cl)c2)n2nnnc2N3C)c2cncn2C)cc1 (mixture of isomers) ; what melting point value has been reported? 144

melting point for COc1ccc(C(O)(c2ccc3c(c2)C(c2cccc(Cl)c2)n2nnnc2N3CC2CC2)c2cncn2C)cc1 (stereo not drawn) ? 121

Quick one: melting point for CC(C)OC(=O)c1ccc(C(O)(c2ccc3c(c2)C(c2cccc(Cl)c2)n2nnnc2N3C)c2cncn2C)cc1 (mixture of isomers) ? 165

----------
- TARGET_OF_ASSAY: farnesyl protein transferase (Homo sapiens, UniProt P49354+P49356)
- PROTOCOL_SUMMARY: In vitro assay for inhibition of farnesyl protein transferase
- Format: biochemical
- CONDITION_LABEL: at 10^−7 M
Task for the reader: assign each of the following molecules its reported % of inhibition at 10^−7 M.
Just the number in %, nothing appended.

// lookup % of inhibition at 10^−7 M for Cn1cncc1[C@@](N)(c1ccc(Cl)cc1)c1ccc2c(c1)C(c1cccc(Cl)c1)n1nnnc1N2 (single isomer, unassigned) 42

Recorded % of inhibition at 10^−7 M for COc1ccc(C(O)(c2ccc3c(c2)C(c2cccc(Cl)c2)n2nnnc2N3)c2cncn2C)cc1 (single isomer, unassigned) [Compound 7] , please? 64

Look up % of inhibition at 10^−7 M for this molecule: Cn1cnnc1C(O)(c1ccc(I)cc1)c1ccc2c(c1)C(c1cccc(Cl)c1)n1nnnc1N2 (centres unmarked) 42

Please look up its % of inhibition at 10^−7 M: Cc1ccc(C(N)(c2ccc3c(c2)C(c2cccc(Cl)c2)n2nnnc2N3)c2cncn2C)cc1 (single isomer, unassigned) [Compound 5] 99

Quick one: % of inhibition at 10^−7 M of COc1ccc(C(O)(c2ccc3c(c2)C(c2cccc(Cl)c2)n2nnnc2N3)c2cncn2C)cc1 (single isomer, unassigned) [Compound 8] ? 88

Requested read-out: % of inhibition at 10^−7 M. Entry: COc1ccc(C(O)(c2ccc3c(c2)C(c2cccc(Cl)c2)n2nnnc2N3C)c2cncn2C)cc1 (mixture of isomers) 90

Returns the measured % of inhibition at 10^−7 M for the input molecule. Input: Cn1cncc1[C@](N)(c1ccc(Cl)cc1)c1ccc2c(c1)C(c1cccc(Cl)c1)n1nnnc1N2 (some centres unmarked) 88

Suppose we examine the molecule Cc1ccc(C(N)(c2ccc3c(c2)C(c2cccc(Cl)c2)n2nnnc2N3)c2cncn2C)cc1 (single isomer, unassigned) [Compound 4] ; what % of inhibition at 10^−7 M value has been reported? 74

----------
Give inhibition at 0.1 µM for every item shown.
- TARGET_OF_ASSAY: farnesyl protein transferase (Homo sapiens, UniProt P49354+P49356)
- PROTOCOL_SUMMARY: In vitro assay for inhibition of farnesyl protein transferase
- Assay type: biochemical
- CONDITION_LABEL: at 10^−7 M
Reply numerically in %, unit not repeated.

Consider the molecule shown here: Cn1cncc1C(O)(c1ccc(Cl)cc1)c1ccc2c(c1)C(c1cccc(Cl)c1)n1nnnc1N2 (stereo not drawn) What is its recorded inhibition at 0.1 µM? 81

Returns the measured inhibition at 0.1 µM for the input molecule. Input: CC(C)OC(=O)c1ccc(C(O)(c2ccc3c(c2)C(c2cccc(Cl)c2)n2nnnc2N3C)c2cncn2C)cc1 (mixture of isomers) 66

Quick one: inhibition at 0.1 µM of CCOC(=O)CN1c2ccc(C(O)(c3ccc(OC)cc3)c3cncn3C)cc2C(c2cccc(Cl)c2)n2nnnc21 (mixture of isomers) ? 80

----------
Give measured melting point for each item. Keep answers brief.

# query: melting point of entry Cn1cncc1[C@](N)(c1ccc(Cl)cc1)c1ccc2c(c1)C(c1cccc(Cl)c1)n1nnnc1N2 (stereo partly shown) [Compound 23] > 250 °C

Entry under review: COc1ccc(C(O)(c2ccc3c(c2)C(c2cccc(Cl)c2)n2nnnc2N3Cc2ccc(C#N)cc2)c2cncn2C)cc1 (mixture of isomers) [Compound 14] . Reported melting point? 164 °C

I am curious: what melting point value has been reported for CCOC(=O)CN1c2ccc(C(O)(c3ccc(OC)cc3)c3cncn3C)cc2C(c2cccc(Cl)c2)n2nnnc21 (mixture of isomers) [Compound 13] ? 126 °C

Item under review: Cn1cncc1C(O)(c1ccc(I)cc1)c1ccc2c(c1)C(c1cccc(Cl)c1)n1nnnc1N2 (mixture of isomers) [Compound 18] . Reported melting point? 225 °C

Consider the compound CN1c2ccc(C(O)(c3ccc(I)cc3)c3nncn3C)cc2C(c2cccc(Cl)c2)n2nnnc21 (mixture of isomers) [Compound 22] and give its measured melting point. 181 °C

Recorded melting point for Cn1cnnc1C(O)(c1ccc(I)cc1)c1ccc2c(c1)C(c1cccc(Cl)c1)n1nnnc1N2 (mixture of isomers) [Compound 16] , please? 226 °C

So what does the record say about melting point for Cn1cncc1[C@](N)(c1ccc(Cl)cc1)c1ccc2c(c1)C(c1cccc(Cl)c1)n1nnnc1N2 (stereo partly shown) [Compound 24] ? 183 °C

# get_value(readout='melting point', item= Cn1cncc1C(O)(c1ccc(Cl)cc1)c1ccc2c(c1)C(c1cccc(Cl)c1)n1nnnc1N2 (stereo not shown) [Compound 1] ) > 260 °C

Name the recorded melting point for Cn1cncc1C(O)(c1ccc(F)cc1)c1ccc2c(c1)C(c1cccc(Cl)c1)n1nnnc1N2 (stereo not shown) [Compound 2] . 180 °C

What measured melting point goes with COc1ccc(C(O)(c2ccc3c(c2)C(c2cccc(Cl)c2)n2nnnc2N3)c2cncn2C)cc1 (single isomer, unassigned) [Compound 8] ? 176 °C

What does the record list as melting point for CN1c2ccc(C(O)(c3ccc(I)cc3)c3cncn3C)cc2C(c2cccc(Cl)c2)n2nnnc21 (mixture of isomers) [Compound 21] ? 228 °C

For the compound shown here, Cn1cncc1[C@@](N)(c1ccc(Cl)cc1)c1ccc2c(c1)C(c1cccc(Cl)c1)n1nnnc1N2 (single isomer, unassigned) [Compound 11] , give the reported melting point. 242 °C

Report melting point for Cn1cnnc1C(O)(c1ccc(I)cc1)c1ccc2c(c1)C(c1cccc(Cl)c1)n1nnnc1N2 (stereo not shown) [Compound 17] please. 195 °C

----------
- TARGET_OF_ASSAY: farnesyl protein transferase (Homo sapiens, UniProt P49354+P49356)
- PROTOCOL_SUMMARY: In vitro assay for inhibition of farnesyl protein transferase
- Format: biochemical
- CONDITION_LABEL: at 10^−7 M
Output class 1 for inhibition at 0.1 µM not less than 80%; output class 0 otherwise.

Would you say Cn1cncc1[C@](N)(c1ccc(Cl)cc1)c1ccc2c(c1)C(c1cccc(Cl)c1)n1nnnc1N2 (some centres unmarked) shows inhibition at 0.1 µM at minimum 80%? class 1

Hello, I need to know if Cn1cncc1C(O)(c1ccc(I)cc1)c1ccc2c(c1)C(c1cccc(Cl)c1)n1nnnc1N2 (mixture of isomers) has measured inhibition at 0.1 µM not below 80%. Thanks! class 0

Please check the record Cn1cncc1C(O)(c1ccc(F)cc1)c1ccc2c(c1)C(c1cccc(Cl)c1)n1nnnc1N2 (centres unmarked) and state if its inhibition at 0.1 µM is at or above 80%. class 1

Quick check, inhibition at 0.1 µM >= 80%? Cn1cnnc1C(O)(c1ccc(I)cc1)c1ccc2c(c1)C(c1cccc(Cl)c1)n1nnnc1N2 (mixture of isomers) class 0

Reported inhibition at 0.1 µM at or above 80%? Cn1cncc1[C@@](N)(c1ccc(Cl)cc1)c1ccc2c(c1)C(c1cccc(Cl)c1)n1nnnc1N2 (single isomer, unassigned) class 0

Determine whether measured inhibition at 0.1 µM meets or exceeds 80% for CCOC(c1ccc(Cl)cc1)(c1ccc2c(c1)C(c1cccc(Cl)c1)n1nnnc1N2)c1cncn1C (centres unmarked) class 0

Is inhibition at 0.1 µM for COc1ccc(C(O)(c2ccc3c(c2)C(c2cccc(Cl)c2)n2nnnc2N3Cc2ccc(C#N)cc2)c2cncn2C)cc1 (mixture of isomers) at or above 80%? class 0

Would you say CN1c2ccc(C(O)(c3ccc(I)cc3)c3nncn3C)cc2C(c2cccc(Cl)c2)n2nnnc21 (mixture of isomers) shows inhibition at 0.1 µM at minimum 80%? class 0

Exam item: decide whether the reported inhibition at 0.1 µM for CN1c2ccc(C(O)(c3ccc(Cl)cc3)c3cncn3C)cc2C(c2cccc(Cl)c2)n2nnnc21 (mixture of isomers) is at least 80%. class 1

I'd appreciate it if you could say whether COc1ccc(C(O)(c2ccc3c(c2)C(c2cccc(Cl)c2)n2nnnc2N3C)c2cncn2C)cc1 (mixture of isomers) has inhibition at 0.1 µM at least equal to 80%. class 1

Test whether the compound COc1ccc(C(c2ccc3c(c2)C(c2cccc(Cl)c2)n2nnnc2N3C)c2cncn2C)cc1 (mixture of isomers) records inhibition at 0.1 µM of 80% or higher. class 1

These data points were gathered from patent US7655654B2.
